Below: a set of entries, each annotated with reported apparent KD of MS2 coat protein.
Tested on: MS2 coat protein
Assay: apparent KD of MS2 coat protein; designed switch direction (-1 OFF switch, 1 ON switch): 1; higher = weaker reporter binding
Details: input ligand: microRNA oligo, concentration not stated
The reply should be a number in µM, with the unit left off.

Consider the reported apparent KD of MS2 coat protein for these sequences:
{"columns": ["residue.sequence", "measure.name", "observed.value"],
 "data": [
  ["UCGGGCGUACUUGCUGACAUGAGGAUCACCCAUGUGAUUGGGAAGGAUAUGGUUCCGUUUCGGUUCCAGAAGGUCCUGGGUGCU [salish99_SSNG3_r04_313] (Eterna round: R96, puzzle: Same State NG 3)", "apparent KD of MS2 coat protein", 0.459],
  ["GCUCGACUGAUGGCCUACAUGAGGAUCACCCAUGUGACUGGGCAGGAUAUCUAGAUGCAGGAUGUAGAGAAGGGCCUGUCGAGC [SameState NG3 #43] (Eterna round: R96, puzzle: Same State NG 3)", "apparent KD of MS2 coat protein", 0.201],
  ["UUGUUUCGUCAUUAACAUGAGGAUCACCCAUGUAAAGAACCAGAGGAUAUGCAUGUUUGAUUGUAGCAGAAGGCUGAUUGUUGU [JR_SSNG3_Sub033] (Eterna round: R96, puzzle: Same State NG 3)", "apparent KD of MS2 coat protein", 0.0427],
  ["GGGCCACAUGAGGAUCACCCAUGUGGAGCUAGUGCACGGUCACAGGAUAUCUCGUGGGCGUAUAGGGAGAAGGGUGAUUCAUUA [Eternabot solution 18] (Eterna round: R96, puzzle: Same State NG 3)", "apparent KD of MS2 coat protein", 0.0513]
]}

Suppose we examine the sequence CUGCUCGUGUGAGGAUAUGCCGCCGUUUCGGCUGCAGAAGGUGCUACGUUACAUGAGGAUCACCCAUGUCUCUGUUGUUUCGUU [salish99_SSNG1_r04_947] (Eterna round: R96, puzzle: Same State NG 1) ; what apparent KD of MS2 coat protein value has been reported?
0.019

Same read-out for UUACUCAUGUAAGGAUAUGCAGCCGAAACGGCUGCAGAAGGUACUAUAAUACAUGAGGAUCACCCAUGUCUCUAUUAUAAAGUU [Mat - Same State NG 1 - JL mod - D95] (Eterna round: R96, puzzle: Same State NG 1) ?
0.0434

Same read-out for GUGGUGGGUUGAGGAUAUUGGUUGUUGUUGUUCCACAUGAGGAUCACCCAUGUGGGUUGUGGUUUUGAGAAGGUUGGUUGCUGG [salish99_SSNG2_r04_050] (Eterna round: R96, puzzle: Same State NG 2) ?
0.0142

Same read-out for GCUCGAAUCAGAACCAACAUGAGGAUCACCCAUGUAUGUUGGUAGGAUAUCGUUUCUAAGAGAAACGAGAAGGGCCGAACGAGC [SameState NG3 #5] (Eterna round: R96, puzzle: Same State NG 3) ?
0.132

Same read-out for AUGCCAAAUCAAGGAUAUGGAUCCUUAUUGGAUCCAGAAGGUGGGACAUGAGGAUCACCCAUGUGGCAGUGGUCUAAUGACCAC [Fiskers NG1ss - 30] (Eterna round: R96, puzzle: Same State NG 1) ?
0.185

Same read-out for AUAUGAGGAGCAGGAUAUGCGAAGAAGAAAGAAGUAGAAGGGCUCAUGGGACGACAUGAGGAUCACCCAUGUACUACCCGAUGA [AK SSNG1-V2-8] (Eterna round: R96, puzzle: Same State NG 1) ?
0.0667

Same read-out for UUGAAUAAUUAAGGAUAUCGAGUCAAGAUGUUAAACAUGAGGAUCACCCAUGUGGGUUGCGGUAUCGAGAAGGUAAAUAAUAAG [Mat - Same State NG 2 - JL mod - D56] (Eterna round: R96, puzzle: Same State NG 2) ?
0.0288

Same read-out for CUUCGGAAGCGAGGAUAUGCAGAGGAUCACCCUGCAGAAGGCGCAAAAGCGAGGAUAUGCAGAGGAUCACCCUGCAGAAGGCGC [pwkr ssNG DX.34] (Eterna round: R96, puzzle: Same State NG 1) ?
0.0157

Same read-out for CACAAUCUAUCUGAGGAUAUCAUGAAAAAAACAUGAGGAUCACCCAUGUGCAGGAAAACUGCAUAUGAGAAGGCAGAUAGAUUGC [salish99_SS2_r3_013] (Eterna round: R96, puzzle: Same State 2) ?
0.452

Same read-out for GCAAUAAGGUGAGGAUAUGCAGAGGAUCACCCUGUAGAAGGCAUCAGGUGAGGAUAUGCAGAGGAUCACCCUGUAGAAGGCAUC [pwkr ssNG DX.15] (Eterna round: R96, puzzle: Same State NG 1) ?
0.123

Same read-out for AGCUAGUACCGAGGAUAUACAUACAUGAGGAUCACCCAUGUAUACAUGAAUUUAUGAGACUACAUGUAGAAGGCGGUACUAGCA [JL SSNG2 1.21] (Eterna round: R96, puzzle: Same State NG 2) ?
0.0401

Same read-out for GGAAUAUGAUGUUACAUGAGGAUCACCCAUGUAGUGAUAACUAAGGAUAUCUGUUAAGAUAAUUAAGAGAAGGUAGGAUCAUAA [AK SSNG3-V2-8.2] (Eterna round: R96, puzzle: Same State NG 3) ?
0.0375

Same read-out for ACGCCUAAACGGCGAAAACGACAUGAGGAUCACCCAUGUACACAGGAUAUCAGCCUGCAACAGGCUGAGAAGGGUGAACCUAAA [Atatmadiar] (Eterna round: R96, puzzle: Same State NG 3) ?
0.0355

Same read-out for GAAAAACAUGAGGAUCACCCAUGUGAGAAUAUGGGAGGAUAUACGAGGACGAGAGUCAAGGUAGAAGGCCUAAAAG [Garnet 75] (Eterna round: R96, puzzle: Same State 1) ?
0.255

Data credit: the supplement of paper PMC9170038
